Each entry below lists one item and its recorded melting point value.
PROPERTY LABEL: melting point (°C)

[[record]]
compound = "N#Cc1ccc(CC23CCCN2C(=O)N(CCc2cccc(Cl)c2)C3=O)cc1 (centres unmarked)"
property_label = "melting point"
unit_label = "°C"
data_value = 148

[[record]]
compound = "O=C1N(c2cccc(Cl)c2)C(=O)C2(Cc3ccc(Br)cc3)CCCN12 (centres unmarked)"
property_label = "melting point"
unit_label = "°C"
data_value = 66

[[record]]
compound = "O=C1N(c2cc(Cl)cc(Cl)c2)C(=O)C2(Cc3ccc(Br)cc3)CNCCN12 (centres unmarked)"
property_label = "melting point"
unit_label = "°C"
data_value = 92.5

[[record]]
compound = "N#Cc1ccc(CC23CCCN2C(=O)N(Cc2ccncc2)C3=O)cc1 (centres unmarked)"
property_label = "melting point"
unit_label = "°C"
data_value = 154

[[record]]
compound = "O=C1N(c2cc(Cl)cc(Cl)c2)C(=O)C2(Cc3ccc(Br)cc3)C[C@@H](c3ccccc3)CN12 (some centres unmarked)"
property_label = "melting point"
unit_label = "°C"
data_value = 123.5


----------
Where a name gives a salt, the structure may show the parent alone.
Each entry below lists one item and its recorded melting point value.
PROPERTY LABEL: melting point (°C)

[[record]]
molecule = "CC(=O)N[C@@H]1CN2C(=O)N(c3cc(Cl)nc(Cl)c3)C(=O)[C@@]2(Cc2ccc(OC(F)(F)F)cc2)C1"
data_value = 126.9

[[record]]
molecule = "O=C(N[C@@H]1CN2C(=O)N(c3cc(Cl)nc(Cl)c3)C(=O)[C@@]2(Cc2ccc(OC(F)(F)F)cc2)C1)c1ccncc1"
data_value = 148

[[record]]
molecule = "COC(=O)c1ccc(CC23CCCCN2C(=O)N(c2cc(Cl)cc(Cl)c2)C3=O)cc1 (stereo not drawn)"
data_value = 51

[[record]]
molecule = "O=C1N(c2cc(Cl)nc(Cl)c2)C(=O)C2(Cc3ccc(O)cc3)CCCN12 (stereo not drawn)"
data_value = 164.9

[[record]]
molecule = "O=C1N(c2cc(Cl)nc(Cl)c2)C(=O)C2(Cc3ccc(Br)cc3)CCCN12 (stereo not drawn)"
data_value = 76.3

[[record]]
molecule = "CC(C)(C)OC(=O)N1CCN2C(=O)N(c3cc(Cl)cc(Cl)c3)C(=O)C2(Cc2ccc(Br)cc2)C1 (stereo not drawn) (as salt: Na)"
data_value = 79.5

[[record]]
molecule = "N#Cc1ccc(CC23CCCN2C(=O)N(c2cc(Cl)cc(-n4cccc4)c2)C3=O)cc1 (stereo not drawn)"
data_value = 266.5

[[record]]
molecule = "CN(C)CC(=O)N1CCN2C(=O)N(c3cc(Cl)cc(Cl)c3)C(=O)C2(Cc2ccc(Br)cc2)C1 (stereo not drawn)"
data_value = 73.5

[[record]]
molecule = "O=C1N(c2cc(Cl)cc(Cl)c2)C(=O)C2(Cc3ccc(S(=O)(=O)C(F)(F)F)cc3)CCCN12 (stereo not drawn)"
data_value = 72.5

[[record]]
molecule = "CS(=O)(=O)NCC(=O)N[C@@H]1CN2C(=O)N(c3cc(Cl)nc(Cl)c3)C(=O)[C@@]2(Cc2ccc(OC(F)(F)F)cc2)C1"
data_value = 104.9

[[record]]
molecule = "O=C1N(c2cc(Cl)cc(Cl)c2)C(=O)C2(Cc3ccc(Br)cc3)CCCN12 (stereo not drawn)"
data_value = 69.4

[[record]]
molecule = "Cc1cc([C@H]2CN3C(=O)N(c4cc(Cl)nc(Cl)c4)C(=O)[C@]3(Cc3ccc(OC(F)(F)F)cc3)C2)c(C)[nH]1"
data_value = 112.4

[[record]]
molecule = "O=C1N(c2cc(Cl)cc(Cl)c2)C(=O)[C@@]2(Cc3ccc(Br)cc3)C[C@H](O)CN12"
data_value = 60.4

[[record]]
molecule = "O=C1N(c2cccc(C(F)(F)F)c2)C(=O)C2(Cc3ccc(Br)cc3)CCCN12 (stereo not drawn)"
data_value = 82.6


----------
Each entry below lists one item and its recorded melting point value.
PROPERTY LABEL: melting point (°C)

[[record]]
compound = "COC(=O)CCN1CCCC2(Cc3ccc(Br)cc3)C(=O)N(c3cc(Cl)nc(Cl)c3)C(=O)N12 (stereo not shown)"
data_value = 157

[[record]]
compound = "O=C1N(c2cc(Cl)cc(Cl)c2)C(=O)C2(Cc3ccc(Br)cc3)CCCCN12 (stereo not shown)"
data_value = 128.8

[[record]]
compound = "O=C1N(c2cc(Cl)nc(Cl)c2)C(=O)[C@@]2(Cc3ccc(OC(F)(F)F)cc3)C[C@@H](O)CN12"
data_value = 52.4

[[record]]
compound = "CC(=O)N1CCN2C(=O)N(c3cc(Cl)cc(Cl)c3)C(=O)C2(Cc2ccc(Br)cc2)C1 (stereo not shown)"
data_value = 89.6


----------
PROPERTY LABEL: melting point

[[record]]
molecule = "CC(=O)Nc1cccc(-c2ccc(CC34CCCN3C(=O)N(c3cc(Cl)cc(Cl)c3)C4=O)cc2)c1 (stereo not drawn) [Example 119]"
property_label = "melting point"
data_value = "98 °C"

[[record]]
molecule = "O=C(O)CNC(=O)c1c(Cl)cc(N2C(=O)N3CCCC3(Cc3ccc(Br)cc3)C2=O)cc1Cl (stereo not drawn) [Example 227]"
property_label = "melting point"
data_value = "157 to 158 °C"

[[record]]
molecule = "N#Cc1ccc(CC23CN(C(=O)CCC(=O)O)CCN2C(=O)N(c2cc(Cl)nc(Cl)c2)C3=O)cc1 (stereo not drawn) [Example 163]"
property_label = "melting point"
data_value = "100.9 °C (dec.)"


----------
PROPERTY LABEL: melting point

[[record]]
compound = "N#Cc1ccc(CC23CCCN2C(=O)N(c2cc(Cl)cc(Cl)c2N)C3=O)cc1 (stereo not shown) [Example 240]"
property_label = "melting point"
data_value = "122.2 °C"

[[record]]
compound = "O=C(c1ccc(Cl)c(Cl)c1)N1C(=O)N2CCCC2(Cc2ccc(Br)cc2)C1=O (stereo not shown) [Example 109]"
property_label = "melting point"
data_value = "158 °C"

[[record]]
compound = "O=C(O)c1cc(C(=O)O)cc(N2C(=O)N3CCCC3(Cc3ccc(Br)cc3)C2=O)c1 (stereo not shown) [Example 236]"
property_label = "melting point"
data_value = "259 °C (dec.)"

[[record]]
compound = "NC1CN2C(=O)N(c3cc(Cl)nc(Cl)c3)C(=O)C2(Cc2ccc(OC(F)(F)F)cc2)C1 (stereo not shown) [Example 281]"
property_label = "melting point"
data_value = "123.5 °C"


----------
PROPERTY LABEL: melting point (°C)

[[record]]
compound = "CC(O)c1cccc(-c2ccc(CC34CCCN3C(=O)N(c3cc(Cl)cc(Cl)c3)C4=O)cc2)c1 (stereo not drawn)"
property_label = "melting point"
data_value = 66.5

[[record]]
compound = "[N-]=[N+]=N[C@@H]1CN2C(=O)N(c3cc(Cl)nc(Cl)c3)C(=O)[C@@]2(Cc2ccc(OC(F)(F)F)cc2)C1"
property_label = "melting point"
data_value = 139.9

[[record]]
compound = "O=C(Nc1ccccc1)Nc1cccc(-c2ccc(CC34CCCN3C(=O)N(c3cc(Cl)cc(Cl)c3)C4=O)cc2)c1 (stereo not drawn)"
property_label = "melting point"
data_value = 150.2

[[record]]
compound = "CC(=O)NC1CN2C(=O)N(c3cc(Cl)nc(Cl)c3)C(=O)C2(Cc2ccc(OC(F)(F)F)cc2)C1 (stereo not drawn)"
property_label = "melting point"
data_value = 122.7

[[record]]
compound = "O=C1CN2C(=O)N(c3cc(Cl)cc(Cl)c3)C(=O)C2(Cc2ccc(Br)cc2)C1 (stereo not drawn)"
property_label = "melting point"
data_value = 85.4

[[record]]
compound = "N#Cc1ccc(CC23CCCN2C(=O)N(c2cc(Cl)nc(Cl)c2)C3=O)cc1 (stereo not drawn)"
property_label = "melting point"
data_value = 96

[[record]]
compound = "CCCCC(=O)N[C@@H]1CN2C(=O)N(c3cc(Cl)nc(Cl)c3)C(=O)[C@@]2(Cc2ccc(OC(F)(F)F)cc2)C1"
property_label = "melting point"
data_value = 66.8


----------
PROPERTY LABEL: melting point (°C)

[[record]]
molecule = "CC(C)(C)OC(=O)c1ccc(C(=O)N[C@H]2CN3C(=O)N(c4cc(Cl)cc(Cl)c4)C(=O)[C@@]3(Cc3ccc(Br)cc3)C2)cc1 [Example 80]"
property_label = "melting point"
data_value = 112

[[record]]
molecule = "O=C1N(c2cc(Cl)nc(Cl)c2)C(=O)C2(Cc3ccc(OC(F)(F)F)cc3)C[C@H](n3cccc3)CN12 (stereo in doubt) [Example 251]"
property_label = "melting point"
data_value = 129.5

